target: Intermediate conductance calcium-activated potassium channel protein 4 (Homo sapiens, UniProt O15554); test: Inhibition Assay: Human HEK293 cells over-expressing human IK are grown in culture medium (DMEM supplemented with 10% foetal bovine serum), in polystyrene culture flasks ([…]) in a humidified atmosphere of 5% CO2 in air, at 37° C. Cell confluence should be 80-90% on day of plating. Cells are rinsed with 4 mL of PBS (phosphate buffered saline) and incubated 2 min with 1 mL of Trypsin-EDTA. After addition of 25 mL of culture medium cells are re-suspended by trituration with a 25 mL pipette.The cells are seeded at a density of 3×10^6 cells/mL (25 μL/well) in black-walled, clear bottom, 384-well plates pre-treated with 0.01 g/L poly-D-lysin (20 μL/well for ≧30 min). Plated cells were allowed to proliferate for 24 h before loading with dye.BTC-AM ([…], Invitrogen) is added 25.5 μl DMSO. The BTC-AM stock solution (2 mM) is diluted to a final concentration of 2 μM in Cl+ free assay buffer (in mM: 140 Na+-gluconate, 2.5 K+-gluconate, 6 Ca2+-gluconate, 1 Mg2+ gluconate, 5 glucose, 10 HEPES, pH 7.3) containing 2 μM ouabain, 2 mM amaranth and 1 mM tartrazine.The culture medium is aspirated from the wells, and 25 μl of the BTC-AM loading solution are added to each well. The cells are incubated at 37° C. for 60 min.After the loading period, the Tl+-sensitive BTC fluorescence signal is measured over time using a FLIPR.
Sequence (O15554 whole entry): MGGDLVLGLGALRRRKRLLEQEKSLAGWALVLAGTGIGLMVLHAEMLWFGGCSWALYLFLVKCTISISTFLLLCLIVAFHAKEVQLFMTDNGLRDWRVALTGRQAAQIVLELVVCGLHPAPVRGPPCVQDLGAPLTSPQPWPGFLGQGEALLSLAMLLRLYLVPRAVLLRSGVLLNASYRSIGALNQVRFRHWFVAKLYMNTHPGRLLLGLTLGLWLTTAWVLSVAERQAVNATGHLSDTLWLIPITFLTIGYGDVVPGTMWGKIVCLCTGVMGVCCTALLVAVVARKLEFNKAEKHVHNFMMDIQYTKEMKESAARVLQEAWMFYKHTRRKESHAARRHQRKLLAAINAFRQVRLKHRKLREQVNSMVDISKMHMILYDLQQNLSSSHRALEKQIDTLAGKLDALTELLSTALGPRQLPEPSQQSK
quantity: pIC50
Friendly reminder that pIC50 comes from taking -log10 of the concentration in mol/L.

## Task What value of measured pIC50 is listed for COCCNc1ccccc1-c1ccccc1-c1nnnn1-c1ccccc1F ?
## Result 6.17
